Biological target: Fc-fusion protein of human carbonic anhydrase IX (human, UniProt Q16790 38-414)
Assay: SPR, captured hCAIX-Fc; pKD category A: >8.0
Starred links: 1 amine or outer side, 2 acyl side, 3 side chain; linkers in the order of their positions; H or OH if unused. Positions of bridges follow the written chain, without caps; N, C: chain ends. Non-standard residues stand in square brackets, D forms with d. Primed or numbered codes have the meaning given here. *: point of attachment. APAc″ = 2-(4-(amino)piperidin-1-yl)acetic acid, NC1CCN(CC(=O)*)CC1; DOTA = O=C(O)CN1CCN(CC(=O)O)CCN(CC(=O)*)CCN(CC(=O)O)CC1; mXylylene = c1cc(C[*:1])cc(C[*:2])c1; NH4PhSa = not defined here; APAc = not defined here; Dap = NC[C@H](N)C(=O)O
A collection of binders and their measured pKD

Solved cases (2 shown):
>  <binder>
{DOTA-APAc″}-VDCE[dP]DWLTW[Dap]C-NH2 (lactam 2-11; linker 3-12 via mXylylene) [3BP-4174]

>  <pKD>
> 8 pkd

$$$$
>  <binder>
Ac-VYCE[dP]DWLTWAC-NH2 (linker 3-12 via mXylylene; SMILES CC(=O)N[C@H](C(=O)N[C@@H](Cc1ccc(O)cc1)C(=O)N[C@H]1CSCc2cccc(c2)CSC[C@@H](C(N)=O)NC(=O)[C@H](C)NC(=O)[C@H](Cc2c[nH]c3ccccc23)NC(=O)[C@H]([C@@H](C)O)NC(=O)[C@H](CC(C)C)NC(=O)[C@H](Cc2c[nH]c3ccccc23)NC(=O)[C@H](CC(=O)O)NC(=O)[C@H]2CCCN2C(=O)[C@H](CCC(=O)O)NC1=O)C(C)C) [3BP-3282]

>  <pKD>
> 8 pkd

$$$$

Query :: Requested field: pKD. Item: {DOTA-APAc}-VYCE[dP]E(NH4PhSa)WLTWSC-NH2 (linker 3-12 via mXylylene; reading uncertain) [3BP-4442]
Result :: > 8 pkd
